Attribution: patent US20210253725A1

Molecular target: T1, CD27 expressed on the cell surface (HT1080_CD27 cells) (human, UniProt P26842 20-260)
T1 construct: whole, on cells; also called K562_CD27
T1 sequence (looked up): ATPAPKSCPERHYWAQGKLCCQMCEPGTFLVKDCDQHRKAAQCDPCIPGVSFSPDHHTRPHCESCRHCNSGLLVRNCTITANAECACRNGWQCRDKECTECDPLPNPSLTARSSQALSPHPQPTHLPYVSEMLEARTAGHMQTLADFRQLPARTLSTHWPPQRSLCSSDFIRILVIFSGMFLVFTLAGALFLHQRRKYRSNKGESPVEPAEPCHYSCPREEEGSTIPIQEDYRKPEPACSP
Assay: cellular binding assay, HT1080_CD27 cells; note: test concentration or dose not given here
Would you mind telling me the reported Cellular binding assay [RFU] of each entry?
Give a bare numeral; the unit RFU is implied.

// query Find the measured Cellular binding assay [RFU] of P018.S.03.A.F02 (antibody, V domains shown, V regions on human Ig constant parts; also called AB27_53) VH: QSVEESGGRLVTPGTPLTLTCTVSGFSLSSNAMTWVRQAPGKGLEWIGFINTGGSTYYASWAKGRFTISKTSTTVDLKITSPTTEDTATYFCARDVGDSRGYYWGLWGQGTLVTVSS VL: AYDMTQTPASVPAAVGGTVTIKCQASEDIYSLLAWYQQKPGQPPKLLIYDASDLASGVPSRFRGSGSGTDYTLTISGVESADAATYYCQQGYTTYTTVDNIFGGGTEVVVK and report it.
// result 276

// query For the binder P018.S.02.A.E06 (antibody, V domains shown, V regions on human Ig constant parts; also called AB27_34) VH: QSLEESGGRLVTPGTPLTLTCTASGFSLSNYSMNWVRQAPGKGLEWIGIINMYGSTYYATWAKGRFTISKTSTTVDLKMTSLTTEDTATYFCARDAGGSTVPWYFDLWGPGTLVTVSS VL: AYDMTQTPASVSEPVGGTVTIKCQASESISDYLAWYQQKPGQRPKLLIYDASKLASGVPSRFSGSGSGTEFTLTISGVGSADAATYYCQQGYADSNVDNVFGGGTEVVVK , give its measured Cellular binding assay [RFU] value.
// result 331

// query Please give measured Cellular binding assay [RFU] of the following entry: P018.S.03.A.G06 (antibody, V domains shown, V regions on human Ig constant parts; also called AB27_59) VH: QSLEESGGDLVKPGASLTLTCTASGFSFSRNNYMCWVRQAPGKGLESIACIHDGNSVGIYYTTWAKGRFTISKTSSTTVTLQMTSLTVADTATYFCARMSYTNDWDPIWGPGTLVTVSS VL: DIVMTQTPASVEAAVGGTVTIDCQASENIYSLLAWYQQKPGQPPKVLISLASNLASGVPSRFKGSGSGTQFSLTISDLESADAATYYCQGYYYSSSTSYENAFGGGTEVVVS
// result 302
